# System: NALM-6;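 also: ALL cell lines in 384-well plates, five doses spanning 10,000-fold, each plate scaled between vehicle and 100 µmol/L benzalkonium chloride controls, sDSS an adapted area-under-curve metric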
# method notes: selective drug sensitivity score (sDSS, relative to normal bone marrow) (sDSS (score)); higher = more potent and effective on the cell line relative to normal bone marrow cells
# stated conditions: 72 h
property measured: selective drug sensitivity score
Would you mind answering with just the numeric figure?

Q) I am curious: what selective drug sensitivity score value has been reported for CC#CC(=O)N1CCC[C@H]1c1nc(-c2ccc(C(=O)Nc3ccccn3)cc2)c2c(N)nccn12 [Acalabrutinib] (top concentration 1000 nM) ?
A) -0.1

Q) selective drug sensitivity score lookup needed for N#CC(c1ccnc(OCc2ccc(CN3CCOCC3)cc2)n1)c1nc2ccccc2s1 (configuration not stated) [Bentamapimod] (top concentration 10000 nM) , thanks.
A) 2.44

Q) Can you look up the measured selective drug sensitivity score of CC[C@]12C=CCN3CC[C@@]4(c5cc([C@@]6(C(=O)OC)C[C@@H]7C[C@@H](C(C)(F)F)CN(Cc8c6[nH]c6ccccc86)C7)c(OC)cc5N(C)[C@H]4[C@@](O)(C(=O)OC)[C@@H]1OC(C)=O)[C@@H]32 [Vinflunine] (top concentration 1000 nM) for me?
A) 5.18

Q) What does the record list as selective drug sensitivity score for Cn1cnc2c(F)c(Nc3ccc(Br)cc3F)c(C(=O)NOCCO)cc21 [Binimetinib] (top concentration 1000 nM) ?
A) 5.78

Q) Which measured selective drug sensitivity score value corresponds to CCN(CC)Cc1ccc2cc(COC(=O)Nc3ccc(C(=O)NO)cc3)ccc2c1 [Givinostat] (top concentration 1000 nM) ?
A) 1.2

Q) // selective drug sensitivity score lookup, key: CC(C)c1cc(C(=O)N2Cc3ccc(CN4CCN(C)CC4)cc3C2)c(O)cc1O [Onalespib] (top concentration 2500 nM)
A) 5.52

Q) Sample COc1cc(Nc2ncc(F)c(Nc3ccc4c(n3)N(COP(=O)(O)O)C(=O)C(C)(C)O4)n2)cc(OC)c1OC [Fostamatinib] (top concentration 2500 nM) — what was its selective drug sensitivity score?
A) 2.96

Q) Fill in: selective drug sensitivity score of Cc1nc(C(=O)NCC(=O)O)c(O)c2ccc(Oc3ccccc3)cc12 [Roxadustat] (top concentration 10000 nM) is ___
A) -1.12

Q) Look at this molecule and give its reported selective drug sensitivity score. CC1=NN(c2ccc(C(=O)O)cc2)C(=O)C1=Cc1ccc(-c2cc(C)c(C)cc2[N+](=O)[O-])o1 [C646] (top concentration 25000 nM)
A) -2.06

Q) Tell me the measured selective drug sensitivity score of C=CC(=O)N1CCC[C@@H](n2nc(-c3ccc(Oc4ccccc4)cc3)c3c(N)ncnc32)C1 [Ibrutinib] (top concentration 1000 nM) , please.
A) 2.4

Q) Data request, read-out selective drug sensitivity score, for Cn1cncc1[C@@](N)(c1ccc(Cl)cc1)c1ccc2c(c1)c(-c1cccc(Cl)c1)cc(=O)n2C [Tipifarnib] (top concentration 10000 nM)
A) 10.6

Q) I would be grateful if you could share the reported selective drug sensitivity score for CCNC(=O)CCC/C=C\C[C@@H]1[C@@H](/C=C/[C@@H](O)CCc2ccccc2)[C@H](O)C[C@@H]1O [Bimatoprost] (top concentration 5500 nM) .
A) 0
